These data points were gathered from patent US20220112288A1.

Target: T1, human CD4 on cells (SKW3 cells; human PBMCs) (human, UniProt P01730 26-458)
T1 construct: whole, on cells; SKW3 CD4 knockout cells served as the negative cell line for the WT vs KO ratios; also called hCD4; SKW3 WT
Assay: FACS confirmation, supernatant on SKW3 WT cells, anti-mFc 647 (Bkrd gMFI = 3300)
Label Satisfied when gMFI < 30000 gMFI; otherwise Not satisfied.

Query: Could you please tell me whether gMFI recorded for 75110_02E22A (antibody, V domains shown, Tested as non-clonal hybridoma supernatant (AlivaMab Mouse Kappa), detected with anti-mouse Fc and anti-human kappa) VH: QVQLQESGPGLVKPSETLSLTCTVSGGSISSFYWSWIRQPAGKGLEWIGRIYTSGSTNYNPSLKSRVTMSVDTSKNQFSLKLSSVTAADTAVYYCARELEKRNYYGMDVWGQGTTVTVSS VL: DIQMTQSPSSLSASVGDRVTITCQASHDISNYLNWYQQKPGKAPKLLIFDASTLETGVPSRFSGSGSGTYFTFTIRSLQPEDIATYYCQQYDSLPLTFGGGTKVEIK is less than 30000 gMFI?
Reply: Satisfied

Query: Could you please tell me whether gMFI recorded for 75110_01C18A (antibody, V domains shown, Tested as non-clonal hybridoma supernatant (AlivaMab Mouse Kappa), detected with anti-mouse Fc and anti-human kappa) VH: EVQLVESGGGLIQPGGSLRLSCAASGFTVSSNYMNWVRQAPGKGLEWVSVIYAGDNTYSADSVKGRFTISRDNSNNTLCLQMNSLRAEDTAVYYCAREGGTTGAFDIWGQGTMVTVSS VL: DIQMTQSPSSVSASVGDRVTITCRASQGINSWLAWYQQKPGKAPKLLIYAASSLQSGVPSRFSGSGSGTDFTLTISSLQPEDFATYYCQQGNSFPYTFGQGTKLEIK is less than 30000 gMFI?
Reply: Not satisfied

Query: Could you please tell me whether gMFI recorded for 75110_03I08A (antibody, V domains shown, Tested as non-clonal hybridoma supernatant (AlivaMab Mouse Kappa), detected with anti-mouse Fc and anti-human kappa) VH: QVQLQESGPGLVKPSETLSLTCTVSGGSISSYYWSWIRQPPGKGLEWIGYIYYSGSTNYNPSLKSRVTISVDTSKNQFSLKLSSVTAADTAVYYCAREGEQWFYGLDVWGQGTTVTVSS VL: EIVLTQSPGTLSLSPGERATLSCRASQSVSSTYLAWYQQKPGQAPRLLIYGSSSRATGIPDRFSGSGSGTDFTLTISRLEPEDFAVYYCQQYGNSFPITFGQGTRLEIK is less than 30000 gMFI?
Reply: Satisfied

Query: Could you please tell me whether gMFI recorded for 75110_02I18A (antibody, V domains shown, Tested as non-clonal hybridoma supernatant (AlivaMab Mouse Kappa), detected with anti-mouse Fc and anti-human kappa) VH: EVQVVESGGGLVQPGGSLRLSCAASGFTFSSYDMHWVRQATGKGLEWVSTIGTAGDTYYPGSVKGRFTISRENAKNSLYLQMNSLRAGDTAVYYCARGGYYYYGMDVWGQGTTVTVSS VL: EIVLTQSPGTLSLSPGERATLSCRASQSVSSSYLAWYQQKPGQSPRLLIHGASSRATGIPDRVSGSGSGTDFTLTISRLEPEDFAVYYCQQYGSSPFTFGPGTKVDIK is less than 30000 gMFI?
Reply: Satisfied

Query: Could you please tell me whether gMFI recorded for 75110_05E13A (antibody, V domains shown, Tested as non-clonal hybridoma supernatant (AlivaMab Mouse Kappa), detected with anti-mouse Fc and anti-human kappa) VH: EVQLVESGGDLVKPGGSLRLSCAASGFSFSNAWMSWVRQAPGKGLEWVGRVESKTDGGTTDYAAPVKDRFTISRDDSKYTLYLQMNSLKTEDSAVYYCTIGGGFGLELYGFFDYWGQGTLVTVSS VL: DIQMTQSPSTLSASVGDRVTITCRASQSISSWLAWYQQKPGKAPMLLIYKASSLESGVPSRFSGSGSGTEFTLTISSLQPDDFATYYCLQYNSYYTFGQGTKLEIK is less than 30000 gMFI?
Reply: Not satisfied

Query: Could you please tell me whether gMFI recorded for 75110_08A13A (antibody, V domains shown, Tested as non-clonal hybridoma supernatant (AlivaMab Mouse Kappa), detected with anti-mouse Fc and anti-human kappa) VH: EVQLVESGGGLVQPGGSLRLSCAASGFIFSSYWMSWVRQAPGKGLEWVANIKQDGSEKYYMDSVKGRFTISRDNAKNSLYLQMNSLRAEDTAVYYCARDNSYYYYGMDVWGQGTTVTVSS VL: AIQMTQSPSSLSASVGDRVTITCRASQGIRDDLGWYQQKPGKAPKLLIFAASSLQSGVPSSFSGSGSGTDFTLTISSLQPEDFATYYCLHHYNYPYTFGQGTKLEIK is less than 30000 gMFI?
Reply: Satisfied

Query: Could you please tell me whether gMFI recorded for 75110_04H17A (antibody, V domains shown, Tested as non-clonal hybridoma supernatant (AlivaMab Mouse Kappa), detected with anti-mouse Fc and anti-human kappa) VH: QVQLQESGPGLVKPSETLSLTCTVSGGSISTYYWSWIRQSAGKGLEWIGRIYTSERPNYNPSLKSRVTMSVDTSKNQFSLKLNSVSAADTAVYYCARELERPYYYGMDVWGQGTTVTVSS VL: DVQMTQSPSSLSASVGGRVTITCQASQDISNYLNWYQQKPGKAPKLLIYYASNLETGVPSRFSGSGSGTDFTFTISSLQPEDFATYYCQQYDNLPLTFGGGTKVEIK is less than 30000 gMFI?
Reply: Satisfied

Query: Could you please tell me whether gMFI recorded for 75110_05A11A (antibody, V domains shown, Tested as non-clonal hybridoma supernatant (AlivaMab Mouse Kappa), detected with anti-mouse Fc and anti-human kappa) VH: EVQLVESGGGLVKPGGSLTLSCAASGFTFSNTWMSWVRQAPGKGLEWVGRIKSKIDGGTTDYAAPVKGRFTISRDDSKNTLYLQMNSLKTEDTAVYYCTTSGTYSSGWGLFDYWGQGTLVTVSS VL: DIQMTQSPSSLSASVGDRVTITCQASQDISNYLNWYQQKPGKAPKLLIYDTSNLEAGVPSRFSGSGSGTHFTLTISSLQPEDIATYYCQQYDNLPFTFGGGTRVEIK is less than 30000 gMFI?
Reply: Satisfied

Query: Could you please tell me whether gMFI recorded for 75110_05E05A (antibody, V domains shown, Tested as non-clonal hybridoma supernatant (AlivaMab Mouse Kappa), detected with anti-mouse Fc and anti-human kappa) VH: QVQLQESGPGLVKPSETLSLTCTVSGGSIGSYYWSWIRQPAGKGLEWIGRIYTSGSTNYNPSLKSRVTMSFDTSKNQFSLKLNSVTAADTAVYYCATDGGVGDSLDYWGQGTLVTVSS VL: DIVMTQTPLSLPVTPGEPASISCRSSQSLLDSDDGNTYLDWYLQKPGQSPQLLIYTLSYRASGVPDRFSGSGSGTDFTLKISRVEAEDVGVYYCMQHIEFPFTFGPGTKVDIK is less than 30000 gMFI?
Reply: Not satisfied
